Header: IC50 / MMP-8 (Homo sapiens) / multiple publications
Supply the numeric figure in µM, leaving out any unit text.

What reported IC50 corresponds to Cc1cc(COc2ccc(S(=O)(=O)CC(C3CCCN(C(=O)OC(C)(C)C)C3)N(O)C=O)cc2)c2ccccc2n1 (stereo not shown) on MMP-8 (Homo sapiens)? 10

How about this molecule: O=C(O)[C@@H]1[C@@H](Cn2nnc3ccc(C(F)(F)F)cc3c2=O)CC[C@H]1C(=O)c1ccc(OCc2ccc(Cl)cc2)cc1 (single isomer, unassigned) 0.00079

How about this molecule: CC(C)(Cc1ccc(Cl)cc1)NC(=O)[C@H](CCC(=O)O)NC(=O)c1ccc(-c2ccc(Cl)cc2)cc1 1.79

* * *

Header: IC50 / UniProt:P22894 / multiple publications
// assign rule met if IC50 falls strictly below 8 µM, else rule not met (ties count as rule not met)

Could you please tell me whether IC50 recorded for O=C(CC(CCn1nnc2ccccc2c1=O)C(=O)O)c1cc2cc(OCCCC(F)(F)F)ccc2o1 (single isomer, unassigned; enantiomer 2) is less than 8 µM? rule met

How about this compound: CC(=C1CCOCC1)C(CS(=O)(=O)c1ccc(OCc2cc(C)nc3ccccc23)cc1)N(O)C=O (centres unmarked) rule not met

How about this compound: O=C(CC(CCn1nnc2ccccc2c1=O)C(=O)O)c1cc2cc(OCc3ccccc3)ccc2o1 (single isomer, unassigned; (+)) rule not met

How about this compound: CCCCc1ccc(C(=O)Nc2ccc(S(=O)(=O)N(CCN3CCOCC3)[C@@H](C(=O)NO)C(C)C)cc2)cc1 rule met

How about this compound: O=C(CC(CCn1nnc2ccccc2c1=O)C(=O)O)c1noc2cc(OCC3CC3)ccc12 (racemic) rule met

How about this compound: Cc1ccc2nc(C)cc(COc3ccc(S(=O)(=O)CC(C=C4CCC(=NO)CC4)N(O)C=O)cc3)c2c1 (centres unmarked) rule not met

How about this compound: Cc1cc(COc2ccc(S(=O)(=O)CC(CN3CCN(S(C)(=O)=O)CC3)N(O)C=O)cc2)c2ccccc2n1 (centres unmarked) rule not met

How about this compound: O=C(CC(CCn1nnc2ccccc2c1=O)C(=O)O)c1cc2ccc(OCCCC3CCCCC3)cc2o1 (racemic) rule not met

How about this compound: CCC(CC)C(=O)N1CCC(CC(CS(=O)(=O)c2ccc(OCc3cc(C)nc4ccccc34)cc2)N(O)C=O)C(C)C1 (centres unmarked) rule not met

How about this compound: O=C(O)[C@H]1[C@H](Cn2nnc3ccc(C(F)(F)F)cc3c2=O)CC[C@@H]1C(=O)c1ccc(OCC2CCOCC2)cc1 (racemic) rule met

How about this compound: CCC(CC)C(=O)N1CCC(CC(CS(=O)(=O)c2ccc(OCc3cc(C)nc4ccccc34)cc2)N(O)C=O)CC1 (centres unmarked) rule met

How about this compound: O=C(CC(CCn1nnc2ccccc2c1=O)C(=O)O)c1cc2cc(OCCc3ccccc3Cl)ccc2o1 (racemic) rule not met

How about this compound: CCC(CC)C(=O)N1CCC(=CC(CS(=O)(=O)c2ccc(OCc3cc(C)nc4ccccc34)cc2)N(O)C=O)CC1 (centres unmarked) rule not met

* * *

Header: pIC50 / MMP-8 (Homo sapiens, UniProt P22894) / multiple publications
pIC50: −log10 of the molar value.
Would you mind labelling by pIC50? At or over 7 is true (1), under is false (0).

hey, is pIC50 for this one >= 7? Cc1cccc(COc2ccc(C(=O)[C@H]3CC[C@@H](Cn4nnc5ccc(C)cc5c4=O)[C@@H]3C(=O)O)cc2)c1 (racemic) false (0)

How about this compound: O=C(O)[C@@H]1[C@@H](Cn2nnc3ccccc3c2=O)CC[C@H]1C(=O)c1ccc(OCCC2CCOCC2)cc1 (single isomer, unassigned) true (1)

How about this compound: O=C(O)[C@H]1[C@H](Cn2nnc3ccc(C(F)(F)F)cc3c2=O)CC[C@@H]1C(=O)c1ccc(SCc2ccc(Cl)c(Cl)c2)cc1 (racemic) false (0)

How about this compound: CC(C)(Cc1ccccc1)NC(=O)[C@H](CCC(=O)O)NC(=O)c1ccc(-c2cccc(F)c2)cc1 false (0)

How about this compound: O=C(O)[C@@H]1[C@@H](Cn2nnc3ccc(C(F)(F)F)cc3c2=O)CC[C@H]1C(=O)c1ccc(SCc2ccc(Cl)c(Cl)c2)cc1 (single isomer, unassigned) true (1)

How about this compound: Cc1ccc(C(C)(CS(=O)(=O)c2ccc(OCc3cc(C)nc4ccccc34)cc2)N(O)C=O)cc1 (stereo not shown) false (0)

How about this compound: O=C(O)c1ccc(CNC(=O)c2cc(-c3ccc(OC(F)(F)F)cc3)cs2)cc1 false (0)

How about this compound: CC(C)(Cc1ccc(Cl)cc1)NC(=O)[C@H](CCC(=O)O)NC(=O)c1ccc(-c2cccc(Cl)c2)cc1 false (0)

How about this compound: COCOC1CCC(C)(C(CS(=O)(=O)c2ccc(OCc3cc(C)nc4ccccc34)cc2)N(O)C=O)CC1 (stereo not shown) false (0)

How about this compound: O=C(O)[C@@H]1[C@@H](Cn2nnc3ccc(C(F)(F)F)cc3c2=O)CC[C@H]1C(=O)c1ccc(SCC2CCOCC2)cc1 (single isomer, unassigned) true (1)

How about this compound: CC(C)(Cc1ccc(C(F)(F)F)cc1)C(=O)NC[C@@]1(C2CC2)NC(=O)NC1=O true (1)
